Values compiled from ChEMBL document CHEMBL4627352.

Let's look at some compounds and their measured inhibition zone (IZ).
# Tested on: Proteus vulgaris
# ASSAY_INFO: Inhibition of DHPS in Proteus vulgaris assessed as antibacterial activity by measuring inhibition zone at 5 mg/mL incubated for 24 hrs by disk diffusion method
METRIC: inhibition zone (IZ) (mm)

CN/C(S[C@@H]1O[C@H](COC(C)=O)[C@H](OC(C)=O)[C@H](OC(C)=O)[C@H]1OC(C)=O)=C(/C#N)C(=O)Nc1ccc(S(=O)(=O)Nc2onc(C)c2C)cc1; 11.8
CCN/C(S[C@@H]1O[C@H](COC(C)=O)[C@@H](OC(C)=O)[C@H](OC(C)=O)[C@H]1OC(C)=O)=C(/C#N)C(=O)Nc1ccc(S(=O)(=O)Nc2onc(C)c2C)cc1; 21.4
CCN/C(S[C@@H]1O[C@H](COC(C)=O)[C@H](OC(C)=O)[C@H](OC(C)=O)[C@H]1OC(C)=O)=C(/C#N)C(=O)Nc1ccc(S(=O)(=O)Nc2onc(C)c2C)cc1; 13.4

###

# Tested on: Proteus vulgaris
# ASSAY_INFO: Inhibition of DHPS in Proteus vulgaris assessed as antibacterial activity by measuring inhibition zone at 5 mg/mL incubated for 24 hrs by disk diffusion method
Calls of active or inactive are those of the source. The rule behind the calls is not given here.
METRIC: inhibition zone (IZ)

C=CCN/C(S[C@@H]1O[C@H](COC(C)=O)[C@H](OC(C)=O)[C@H](OC(C)=O)[C@H]1OC(C)=O)=C(/C#N)C(=O)Nc1ccc(S(=O)(=O)Nc2onc(C)c2C)cc1; 15.2 mm
CCS/C(NC12CC3CC(CC(C3)C1)C2)=C(\C#N)C(=O)Nc1ccc(S(=O)(=O)Nc2onc(C)c2C)cc1; inactive
Cc1noc(NS(=O)(=O)c2ccc(NC(=O)/C(C#N)=C(/S)NC34CC5CC(CC(C5)C3)C4)cc2)c1C; 11.7 mm
CCS/C(NC)=C(\C#N)C(=O)Nc1ccc(S(=O)(=O)Nc2onc(C)c2C)cc1; 16.4 mm
CN/C(SC)=C(/C#N)C(=O)Nc1ccc(S(=O)(=O)Nc2onc(C)c2C)cc1; inactive
CCN/C(SCC)=C(/C#N)C(=O)Nc1ccc(S(=O)(=O)Nc2onc(C)c2C)cc1; 19.6 mm
C=CCN/C(S)=C(/C#N)C(=O)Nc1ccc(S(=O)(=O)Nc2onc(C)c2C)cc1; 20.1 mm
CS/C(Nc1ccccc1)=C(\C#N)C(=O)Nc1ccc(S(=O)(=O)Nc2onc(C)c2C)cc1; inactive

###

# Test system: Escherichia coli
# ASSAY_INFO: Inhibition of DHPS in Escherichia coli assessed as antibacterial activity by measuring inhibition zone at 5 mg/mL incubated for 24 hrs by disk diffusion method
Active and inactive are the calls of the source. The calls are words filed in the database; no cut-off is given here.
METRIC: inhibition zone (IZ)

CCS/C(NC)=C(\C#N)C(=O)Nc1ccc(S(=O)(=O)Nc2onc(C)c2C)cc1; 18.2 mm
CCS/C(NC12CC3CC(CC(C3)C1)C2)=C(\C#N)C(=O)Nc1ccc(S(=O)(=O)Nc2onc(C)c2C)cc1; inactive
CCN/C(S)=C(/C#N)C(=O)Nc1ccc(S(=O)(=O)Nc2onc(C)c2C)cc1; 14.3 mm
CCS/C(Nc1ccccc1)=C(\C#N)C(=O)Nc1ccc(S(=O)(=O)Nc2onc(C)c2C)cc1; inactive
C=CCN/C(S)=C(/C#N)C(=O)Nc1ccc(S(=O)(=O)Nc2onc(C)c2C)cc1; 21.2 mm
C=CCN/C(SCC)=C(/C#N)C(=O)Nc1ccc(S(=O)(=O)Nc2onc(C)c2C)cc1; 21.8 mm
CN/C(SC)=C(/C#N)C(=O)Nc1ccc(S(=O)(=O)Nc2onc(C)c2C)cc1; inactive
CN/C(S[C@@H]1O[C@H](COC(C)=O)[C@H](OC(C)=O)[C@H](OC(C)=O)[C@H]1OC(C)=O)=C(/C#N)C(=O)Nc1ccc(S(=O)(=O)Nc2onc(C)c2C)cc1; 16.3 mm
Cc1noc(NS(=O)(=O)c2ccc(NC(=O)/C(C#N)=C(/S)NC34CC5CC(CC(C5)C3)C4)cc2)c1C; 13.3 mm
CC(=O)OC[C@H]1O[C@@H](S/C(Nc2ccccc2)=C(\C#N)C(=O)Nc2ccc(S(=O)(=O)Nc3onc(C)c3C)cc2)[C@H](OC(C)=O)[C@@H](OC(C)=O)[C@@H]1OC(C)=O; 10.6 mm
CN/C(S)=C(/C#N)C(=O)Nc1ccc(S(=O)(=O)Nc2onc(C)c2C)cc1; 20.6 mm
Cc1noc(NS(=O)(=O)c2ccc(N)cc2)c1C; 15.2 mm
C=CCN/C(S[C@@H]1O[C@H](COC(C)=O)[C@@H](OC(C)=O)[C@H](OC(C)=O)[C@H]1OC(C)=O)=C(/C#N)C(=O)Nc1ccc(S(=O)(=O)Nc2onc(C)c2C)cc1; 23.4 mm
CC(=O)OC[C@H]1O[C@@H](S/C(Nc2ccccc2)=C(\C#N)C(=O)Nc2ccc(S(=O)(=O)Nc3onc(C)c3C)cc2)[C@H](OC(C)=O)[C@@H](OC(C)=O)[C@H]1OC(C)=O; 13.2 mm
CCN/C(SCC)=C(/C#N)C(=O)Nc1ccc(S(=O)(=O)Nc2onc(C)c2C)cc1; 20.6 mm
Cc1noc(NS(=O)(=O)c2ccc(NC(=O)/C(C#N)=C(/S)Nc3ccccc3)cc2)c1C; inactive
